# test-details: Pharmacokinetics in female BALB/c nude mice bearing A375 xenografts, 1 day dosing (PK and PD study): plasma, tumor and brain concentrations, AUC
# Assay type: in vivo
# cond: mouse, plasma, po, 2 mg/kg, 2 mg/kg p.o. TID × 1 day; post 1st dose; 4 h; read-out: Mean Concentration in Plasma ± SEM
value-type: concentration at 4 h (ng/mL)
Just the number please, in ng/mL, no unit attached.

Record summary for CCN(C)S(=O)(=O)Nc1ccc(F)c(Oc2ccc3ncn([C@H]4COC5(CCN(C6CC7(C6)CN(c6cc8c(cc6F)c(N6CCC(=O)NC6=O)nn8C)C7)CC5)C4)c(=O)c3c2)c1C#N [Compound 26] : reported concentration at 4 h = 1420

###

# test-details: Pharmacokinetics after 21 days dosing in the efficacy study (plasma, tumor and brain concentrations; plasma AUC at steady state), Example 14
# Format: in vivo, female BALB/c nude mice
# cond: mouse, plasma, po; 2 mg/kg p.o. TID x 21 days; 0.5 h; mean ± SEM
# Experimental: Agents were tested in the A375 human melanoma xenografts. […] Dabrafenib, Compound 26 and Compound 141 in female BALB/c nude mice plasma (K2-EDTA), tumor and brain homogenate were analyzed by LC-MS/MS (Triple Quad 6500+ Low Mass). […]
value-type: concentration at 0.5 h (ng/mL)
Just the number please, in ng/mL, no unit attached.

Record summary for CCN(C)S(=O)(=O)Nc1ccc(F)c(Oc2ccc3ncn([C@H]4COC5(CCN(C6CC7(C6)CN(c6cc8c(cc6F)c(N6CCC(=O)NC6=O)nn8C)C7)CC5)C4)c(=O)c3c2)c1C#N : reported concentration at 0.5 h = 5750

###

# test-details: Pharmacokinetics in female BALB/c nude mice bearing A375 xenografts, 1 day dosing (PK and PD study): plasma, tumor and brain concentrations, AUC
# Format: in vivo
# cond: mouse, plasma, po, 1.5 mg/kg, 1.5 mg/kg p.o. BID × 1 day; post 2nd dose; 10 h; read-out: Mean Concentration in Plasma ± SEM
value-type: concentration at 10 h (ng/mL)
Just the number please, in ng/mL, no unit attached.

Record summary for CCN(C)S(=O)(=O)Nc1ccc(F)c(Oc2ccc3ncn([C@H]4COC5(CCN(C6CC7(C6)CN(c6cc8c(cc6F)c(N6CCC(=O)NC6=O)nn8C)C7)CC5)C4)c(=O)c3c2)c1C#N : reported concentration at 10 h = 541

###

# test-details: Pharmacokinetics after 21 days dosing in the efficacy study (plasma, tumor and brain concentrations; plasma AUC at steady state), Example 14
# Assay type: in vivo, female BALB/c nude mice
# cond: mouse, tumor, po; 10 mg/kg p.o. BID x 21 days; 24 h; mean ± SEM; read-out: Concentration in Tumor
value-type: concentration at 24 h (ng/g)
Just the number please, in ng/g, no unit attached.

Record summary for CCN(C)S(=O)(=O)Nc1ccc(F)c(Oc2ccc3ncn([C@H]4COC5(CCN(C6CC7(C6)CN(c6cc8c(cc6F)c(N6CCC(=O)NC6=O)nn8C)C7)CC5)C4)c(=O)c3c2)c1C#N : reported concentration at 24 h = 663

###

# test-details: Pharmacokinetics in female BALB/c nude mice bearing A375 xenografts, 1 day dosing (PK and PD study): plasma, tumor and brain concentrations, AUC
# Assay type: in vivo
# cond: mouse, plasma, po, 1 mg/kg, 1 mg/kg p.o. TID × 1 day; post 2nd dose; 8 h; read-out: Mean Concentration in Plasma ± SEM
value-type: concentration at 8 h (ng/mL)
Just the number please, in ng/mL, no unit attached.

Record summary for CCN(C)S(=O)(=O)Nc1ccc(F)c(Oc2ccc3ncn(C4CC5(CCN(C6CC7(C6)CN(c6cc8c(cc6F)c(N6CCC(=O)NC6=O)nn8C)C7)CC5)C4)c(=O)c3c2)c1C#N (stereo not shown) : reported concentration at 8 h = 218
